The values you see were collected from the supplement of paper PMC10567573.

B1: ZNF449 (parent)
chain: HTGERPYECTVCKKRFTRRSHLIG

- Variants of: B1
- assay-remarks: protein stability index of a GFP-peptide fusion (GPS, HEK-293T) (PSI 1-6); higher = more stable;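 note: lentivirally expressed fusions sorted by FACS into six bins by GFP to DsRed ratio, PSI derived from sequencing read proportions per bin multiplied by bin number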
- assay-setup: c terminus: a fixed tail appended
# Lookup of reported protein stability index keyed by entry
attribute-measured: protein stability index

[
  {
    "mut": "I23R",
    "attribute-measured": "protein stability index",
    "numeric-result": 3.41
  },
  {
    "mut": "H1D",
    "attribute-measured": "protein stability index",
    "numeric-result": 2.19
  },
  {
    "mut": "R5V",
    "attribute-measured": "protein stability index",
    "numeric-result": 2.07
  },
  {
    "mut": "C9F",
    "attribute-measured": "protein stability index",
    "numeric-result": 2.39
  },
  {
    "mut": "T2Y",
    "attribute-measured": "protein stability index",
    "numeric-result": 1.9
  },
  {
    "mut": "C12W",
    "attribute-measured": "protein stability index",
    "numeric-result": 1.86
  },
  {
    "mut": "T10V",
    "attribute-measured": "protein stability index",
    "numeric-result": 1.39
  },
  {
    "mut": "T2K",
    "attribute-measured": "protein stability index",
    "numeric-result": 2.4
  },
  {
    "mut": "R5Y",
    "attribute-measured": "protein stability index",
    "numeric-result": 2.82
  },
  {
    "mut": "K14C",
    "attribute-measured": "protein stability index",
    "numeric-result": 2.01
  },
  {
    "mut": "Y7P",
    "attribute-measured": "protein stability index",
    "numeric-result": 2.07
  },
  {
    "mut": "L22M",
    "attribute-measured": "protein stability index",
    "numeric-result": 1.86
  },
  {
    "mut": "V11L",
    "attribute-measured": "protein stability index",
    "numeric-result": 2.08
  },
  {
    "mut": "R15D",
    "attribute-measured": "protein stability index",
    "numeric-result": 2.09
  },
  {
    "mut": "K14E",
    "attribute-measured": "protein stability index",
    "numeric-result": 1.73
  },
  {
    "mut": "G3K",
    "attribute-measured": "protein stability index",
    "numeric-result": 2.2
  },
  {
    "mut": "H21E",
    "attribute-measured": "protein stability index",
    "numeric-result": 2.31
  },
  {
    "mut": "R15Q",
    "attribute-measured": "protein stability index",
    "numeric-result": 1.79
  },
  {
    "mut": "T10Y",
    "attribute-measured": "protein stability index",
    "numeric-result": 3.04
  },
  {
    "mut": "R15A",
    "attribute-measured": "protein stability index",
    "numeric-result": 1.99
  },
  {
    "mut": "S20D",
    "attribute-measured": "protein stability index",
    "numeric-result": 2.46
  },
  {
    "mut": "K13Q",
    "attribute-measured": "protein stability index",
    "numeric-result": 2
  },
  {
    "mut": "L22F",
    "attribute-measured": "protein stability index",
    "numeric-result": 1.3
  },
  {
    "mut": "K13M",
    "attribute-measured": "protein stability index",
    "numeric-result": 1.62
  },
  {
    "mut": "S20R",
    "attribute-measured": "protein stability index",
    "numeric-result": 2.9
  },
  {
    "mut": "E8A",
    "attribute-measured": "protein stability index",
    "numeric-result": 1.77
  },
  {
    "mut": "T17M",
    "attribute-measured": "protein stability index",
    "numeric-result": 1.22
  },
  {
    "mut": "E4H",
    "attribute-measured": "protein stability index",
    "numeric-result": 2.17
  },
  {
    "mut": "G3Q",
    "attribute-measured": "protein stability index",
    "numeric-result": 3.59
  },
  {
    "mut": "E8K",
    "attribute-measured": "protein stability index",
    "numeric-result": 1.96
  },
  {
    "mut": "L22H",
    "attribute-measured": "protein stability index",
    "numeric-result": 3
  },
  {
    "mut": "Y7K",
    "attribute-measured": "protein stability index",
    "numeric-result": 2.44
  },
  {
    "mut": "P6L",
    "attribute-measured": "protein stability index",
    "numeric-result": 1.58
  },
  {
    "mut": "K13Y",
    "attribute-measured": "protein stability index",
    "numeric-result": 2.47
  },
  {
    "mut": "E8C",
    "attribute-measured": "protein stability index",
    "numeric-result": 2.38
  },
  {
    "mut": "R18D",
    "attribute-measured": "protein stability index",
    "numeric-result": 2.88
  },
  {
    "mut": "E8Q",
    "attribute-measured": "protein stability index",
    "numeric-result": 2.76
  },
  {
    "mut": "G24R",
    "attribute-measured": "protein stability index",
    "numeric-result": 2.39
  },
  {
    "mut": "I23F",
    "attribute-measured": "protein stability index",
    "numeric-result": 2.42
  },
  {
    "mut": "K13G",
    "attribute-measured": "protein stability index",
    "numeric-result": 1.52
  },
  {
    "mut": "R15Y",
    "attribute-measured": "protein stability index",
    "numeric-result": 1.09
  },
  {
    "mut": "E8Y",
    "attribute-measured": "protein stability index",
    "numeric-result": 2.15
  },
  {
    "mut": "Y7I",
    "attribute-measured": "protein stability index",
    "numeric-result": 2.62
  },
  {
    "mut": "Y7A",
    "attribute-measured": "protein stability index",
    "numeric-result": 2.8
  },
  {
    "mut": "E4K",
    "attribute-measured": "protein stability index",
    "numeric-result": 1.7
  },
  {
    "mut": "T10Q",
    "attribute-measured": "protein stability index",
    "numeric-result": 1.36
  }
]
